- MEASUREMENT_DESCRIPTION: Water content by Karl Fisher (KF) analysis
- Assay type: physicochemical
- PARTICULARS: 100 % RH, room temperature, 7 days
Structures can show the parent of a compound that is named as a salt.
MEASUREMENT_NAME: KF (water content)

// query Report KF (water content), nothing else, for this molecule: CN(CCOc1ccc(CC2SC(=O)NC2=O)cc1)c1ccccn1 (stereo not shown) [Form I, Rosiglitazone hydrobromide]
// result 4.1%

====

- MEASUREMENT_DESCRIPTION: Water content by Karl Fisher (KF) analysis
- Type: physicochemical
- PARTICULARS: 0 % RH, room temperature, 7 days
Counter-ions that a name gives are not always drawn.
MEASUREMENT_NAME: KF (water content) (%)
Give just the numeric value; % need not be written.

// query Report KF (water content), nothing else, for this compound: CN(CCOc1ccc(CC2SC(=O)NC2=O)cc1)c1ccccn1 (stereo not shown) [Form I, Rosiglitazone hydrobromide]
// result 1

====

- MEASUREMENT_DESCRIPTION: Water content by Karl Fisher (KF) analysis
- Format: physicochemical
- PARTICULARS: As is
Where a name gives a salt, the structure may show the parent alone.
MEASUREMENT_NAME: KF (water content) (%)
Give just the numeric value; % need not be written.

// query Report KF (water content), nothing else, for this compound: CN(CCOc1ccc(CC2SC(=O)NC2=O)cc1)c1ccccn1 (stereo not shown) [Form I, Rosiglitazone hydrobromide]
// result 4.1
